// Post-emergence action rating, Amaranth lookup, one value per entry
- Tested on: Monocotyledonous and dicotyledonous test plants
- procedure-summary: Post-emergence herbicidal action, greenhouse pot test, sprayed at the 2- to 3-leaf stage, 9-level rating after 2 to 3 weeks
- Type: in vivo
- measurement-setup: Amaranth, 250 g/ha, rated after 2 to 3 weeks, 9-level scale
observation-type: Post-emergence action rating, Amaranth

>  <compound>
O=C(C1=C(O)C2CCC(C2)C1=O)c1ccc(C(F)(F)F)nc1COCCOC1CCCCO1 (stereo not shown) [A842-B52]

>  <observation-type>
Post-emergence action rating, Amaranth

>  <value-reported>
2

$$$$
>  <compound>
CCOC(C)OCCOCc1nc(C(F)(F)F)ccc1C(=O)C1=C(O)C2CCC(C2)C1=O (stereo not shown) [A859-B52]

>  <observation-type>
Post-emergence action rating, Amaranth

>  <value-reported>
2

$$$$
>  <compound>
CS(=O)(=O)CCOCc1nc(C(F)(F)F)ccc1C(=O)C1=C(O)C2CCC(C2)C1=O (stereo not shown) [A819-B52]

>  <observation-type>
Post-emergence action rating, Amaranth

>  <value-reported>
2

$$$$
>  <compound>
COc1ccccc1OCc1nc(C(F)(F)F)ccc1C(=O)C1=C(O)C2CCC(C2)C1=O (stereo not shown) [A33-B52]

>  <observation-type>
Post-emergence action rating, Amaranth

>  <value-reported>
2

$$$$
>  <compound>
CCN(CC)CC.COCCOCc1nc(C(F)(F)F)ccc1C(=O)C1=C(O)C2CCC(C2)C1=O (stereo not shown) [A10-B52 (Et3NH+)]

>  <observation-type>
Post-emergence action rating, Amaranth

>  <value-reported>
2

$$$$
>  <compound>
COCCOCc1nc(C(F)F)ccc1C(=O)C1=C(O)C2CCC(C2)C1=O (stereo not shown) [A646-B52]

>  <observation-type>
Post-emergence action rating, Amaranth

>  <value-reported>
2

$$$$
>  <compound>
CC(C)OCc1nc(C(F)(F)F)ccc1C(=O)c1cnn(C)c1O [A3-C5]

>  <observation-type>
Post-emergence action rating, Amaranth

>  <value-reported>
3

$$$$
>  <compound>
CC(=O)OCc1nc(C(F)(F)F)ccc1C(=O)C1=C(O)C2CCC(C2)C1=O (stereo not shown) [A833-B52, (H4)]

>  <observation-type>
Post-emergence action rating, Amaranth

>  <value-reported>
2

$$$$
>  <compound>
C=CCOCc1nc(C(F)(F)F)ccc1C(=O)C1=C(O)C2CCC(C2)C1=O (stereo not shown) [A19-B52]

>  <observation-type>
Post-emergence action rating, Amaranth

>  <value-reported>
1

$$$$
>  <compound>
O=C(C1=C(O)C2CCC(C2)C1=O)c1ccc(C(F)(F)F)nc1COCCCO (stereo not shown) [A847-B52]

>  <observation-type>
Post-emergence action rating, Amaranth

>  <value-reported>
3

$$$$
>  <compound>
CSc1nnc(SCc2nc(C(F)(F)F)ccc2C(=O)C2=C(O)C3CCC(C3)C2=O)s1 (stereo not shown) [A829-B52]

>  <observation-type>
Post-emergence action rating, Amaranth

>  <value-reported>
2

$$$$
>  <compound>
COCCOCc1nc(C(F)(F)F)ccc1C(=O)C1=C(O)C(C)(C)CC(C)C1=O (stereo not shown) [A10-B4]

>  <observation-type>
Post-emergence action rating, Amaranth

>  <value-reported>
2

$$$$
>  <compound>
COCCOCc1c(C(=O)C2=C(O)C3CCC(C3)C2=O)ccc(C(F)(F)F)[n+]1[O-] (stereo not shown) [A736-B52]

>  <observation-type>
Post-emergence action rating, Amaranth

>  <value-reported>
1

$$$$
>  <compound>
COCCOCCOCc1nc(C(F)(F)F)ccc1C(=O)C1=C(O)C2CCC(C2)C1=O (stereo not shown) [A835-B52]

>  <observation-type>
Post-emergence action rating, Amaranth

>  <value-reported>
2

$$$$
>  <compound>
O=C(C1=C(O)C2CCC(C2)C1=O)c1ccc(C(F)(F)F)nc1COCc1cccs1 (stereo not shown) [A854-B52]

>  <observation-type>
Post-emergence action rating, Amaranth

>  <value-reported>
1

$$$$
>  <compound>
O=C(C1=C(O)C2CCC(C2)C1=O)c1ccc(C(F)(F)F)nc1COCC1CCCO1 (stereo not shown) [A848-B52]

>  <observation-type>
Post-emergence action rating, Amaranth

>  <value-reported>
1

$$$$

All values here come from patent US7378375B1.
